TGT: T1, mouse ACVR2A (mouse, UniProt P27038 20-135, limits assumed)
T1 construct: coated antigen of the initial ELISA
EXPERIMENTAL_PROTOCOL: ELISA; note: test concentration or dose not given here
RECORDED_METRIC: optical density (OD)
The figure you give is taken to be in OD; do not add the unit.

1) 371_G04 (antibody, V domains shown, Group III) VH: EVQLLESGGGLVQPGGSLRLSCAASGFTFDSYSMNWVRQAPGKGLEWVSGINYNGGYKSYADSVKGRFTISRDNSKNTLYLQMNSLRAEDTAVYYCARGANWHDTALDYWGQGTLVTVSS VL: DIQMTQSPSSLSASVGDRVTITCRASQSILSYLNWYQQKPGKAPKLLIYAATSLHSGVPSRFSGSGSGTDFTLTISSLQPEDFATYYCQQSYESPLTFGGGTKVEIK = 3.58

Indicate the recorded optical density value for this binder: 375_D01 (antibody, V domains shown, Group III) VH: EVQLLESGGGLVQPGGSLRLSCAASGFTFSSYSMNWVRQAPGKGLEWVSGINYNGGYTGYADSVKGRFTISRDNSKNTLYLQMNSLRAEDTAVYYCARGANWHDTALDYWGQGTLVTVSS VL: DIQMTQSPSSLSASVGDRVTITCRASQSILTYLNWYQQKPGKAPKLVIYAATSRASGVPSRFSGSGSGTDFTLTISSLQPEDFATYYCQQSYETPLTFGGGTKVEIK
3.61
